Test system: U-2 OS
Method description: relative cell count vs DMSO (cell painting) (fraction of DMSO control); higher = more cells remaining (less cytotoxic)
Conditions: 5 µM; 24 h
Classify by relative cell count. Ranges: low end (below 0.8), middle (0.8 to below 1), high end (1 or more)

COC(=O)[C@]1(C)CC[C@]2(C)CC[C@]3(C)C4=CC=C5C(=CC(=O)C(O)=C5C)[C@]4(C)CC[C@@]3(C)[C@@H]2C1 ... low end
CC(C)(C)C1=CC(=O)C=CC1=O ... low end
C[C@@H]1Cc2c(Cl)cc(C(=O)N[C@@H](Cc3ccccc3)C(=O)O)c(O)c2C(=O)O1 ... middle
O=S1(=O)C=Cc2ccccc21 ... high end
COc1ccc2cc1Oc1ccc(cc1)C[C@H]1c3cc(c(OC)cc3CCN1C)Oc1c(OC)c(OC)cc3c1[C@H](C2)N(C)CC3 ... high end
S=C(Nc1ccccc1)Nc1nc(-c2ccccc2)[n+](-c2ccccc2)s1 ... middle
Oc1ccc2ccccc2c1SSc1c(O)ccc2ccccc12 ... middle
O=C(O)C[C@@H]1C(=O)O[C@H]2[C@@H]3OC(=O)c4cc(O)c(O)c(O)c4-c4c(cc(O)c(O)c4O)C(=O)OC[C@H]2O[C@@H](OC(=O)c2cc(O)c(O)c(O)c2)[C@@H]3OC(=O)c2cc(O)c(O)c3c2[C@H]1[C@H](O)C(=O)O3 ... high end
Cl.Nc1ccc(O)c2ccccc12 ... low end
S=P(N1CC1)(N1CC1)N1CC1 ... middle
N#CC(C#N)=NNc1cccc(Cl)c1 ... middle
Nc1c[n+](N2CCOCC2)no1.[Cl-] ... low end
